Conditions: in water, 310.75 K
quantity-kind: solubility (mole fraction)
Answers are plain numbers.

QUERY: Fill in: solubility (mole fraction) of O=S(=O)([O-])c1ccc(Nc2nc(Nc3ccc(/C=C/c4ccc(Nc5nc(Nc6ccc(S(=O)(=O)[O-])cc6)nc(N6CCOCC6)n5)cc4S(=O)(=O)[O-])c(S(=O)(=O)[O-])c3)nc(N3CCOCC3)n2)cc1.[Na+].[Na+].[Na+].[Na+] is ___
RESULT: 0.00264

---

Details: in water, 278.45 K
quantity-kind: solubility (mole fraction)
Give bare numbers.

QUERY: Fill in: solubility (mole fraction) of O=S(=O)([O-])c1ccc(Nc2nc(Nc3ccc(/C=C/c4ccc(Nc5nc(Nc6ccc(S(=O)(=O)[O-])cc6)nc(N6CCOCC6)n5)cc4S(=O)(=O)[O-])c(S(=O)(=O)[O-])c3)nc(N3CCOCC3)n2)cc1.[Na+].[Na+].[Na+].[Na+] is ___
RESULT: 0.000399

---

Conditions: in water, 307.55 K
quantity-kind: solubility (mole fraction)

QUERY: Fill in: solubility (mole fraction) of O=S(=O)([O-])c1ccc(Nc2nc(Nc3ccc(/C=C/c4ccc(Nc5nc(Nc6ccc(S(=O)(=O)[O-])cc6)nc(N6CCOCC6)n5)cc4S(=O)(=O)[O-])c(S(=O)(=O)[O-])c3)nc(N3CCOCC3)n2)cc1.[Na+].[Na+].[Na+].[Na+] is ___
RESULT: 0.00219

---

Conditions: in water, 313.95 K
quantity-kind: solubility (mole fraction)
Answers are plain numbers.

QUERY: Fill in: solubility (mole fraction) of O=S(=O)([O-])c1ccc(Nc2nc(Nc3ccc(/C=C/c4ccc(Nc5nc(Nc6ccc(S(=O)(=O)[O-])cc6)nc(N6CCOCC6)n5)cc4S(=O)(=O)[O-])c(S(=O)(=O)[O-])c3)nc(N3CCOCC3)n2)cc1.[Na+].[Na+].[Na+].[Na+] is ___
RESULT: 0.00319

---

Conditions: in water, 283.35 K
quantity-kind: solubility (mole fraction)

QUERY: Fill in: solubility (mole fraction) of O=S(=O)([O-])c1ccc(Nc2nc(Nc3ccc(/C=C/c4ccc(Nc5nc(Nc6ccc(S(=O)(=O)[O-])cc6)nc(N6CCOCC6)n5)cc4S(=O)(=O)[O-])c(S(=O)(=O)[O-])c3)nc(N3CCOCC3)n2)cc1.[Na+].[Na+].[Na+].[Na+] is ___
RESULT: 0.000545

---

Conditions: in water, 273.15 K
quantity-kind: solubility (mole fraction)
Numbers only.

QUERY: Fill in: solubility (mole fraction) of O=S(=O)([O-])c1ccc(Nc2nc(Nc3ccc(/C=C/c4ccc(Nc5nc(Nc6ccc(S(=O)(=O)[O-])cc6)nc(N6CCOCC6)n5)cc4S(=O)(=O)[O-])c(S(=O)(=O)[O-])c3)nc(N3CCOCC3)n2)cc1.[Na+].[Na+].[Na+].[Na+] is ___
RESULT: 0.00029

---

Conditions: in water, 298.75 K
quantity-kind: solubility (mole fraction)

QUERY: Fill in: solubility (mole fraction) of O=S(=O)([O-])c1ccc(Nc2nc(Nc3ccc(/C=C/c4ccc(Nc5nc(Nc6ccc(S(=O)(=O)[O-])cc6)nc(N6CCOCC6)n5)cc4S(=O)(=O)[O-])c(S(=O)(=O)[O-])c3)nc(N3CCOCC3)n2)cc1.[Na+].[Na+].[Na+].[Na+] is ___
RESULT: 0.00137
